assay: Phase I single oral dose pharmacokinetic study of dorzagliatin in subjects with mild or moderate hepatic impairment and healthy subjects (plasma, LC-MS/MS, non-compartmental); type: in vivo, human; settings: both sexes, human, plasma, po, 25 mg, single oral dose 25 mg; moderate hepatic impairment group; read-out: Cmax, geometric least squares mean
property measured: Cmax (ng/mL)

> print(dat)
                                chem.smiles  value.measured
1  CC(C)C[C@@H](C(=O)Nc1ccn(C[C@@H](O)CO)n1)N1CC(Oc2ccccc2Cl)=CC1=O             362

----------
assay: Phase I single oral dose pharmacokinetic study of dorzagliatin in subjects with mild or moderate hepatic impairment and healthy subjects (plasma, LC-MS/MS, non-compartmental); type: in vivo, human; settings: both sexes, human, plasma, po, 25 mg, single oral dose 25 mg, fasted; healthy group; arithmetic mean; read-out: Cmax
property measured: Cmax (ng/mL)

> print(dat)
                                   molecule  unit.label  value.measured
1  CC(C)C[C@@H](C(=O)Nc1ccn(C[C@@H](O)CO)n1)N1CC(Oc2ccccc2Cl)=CC1=O [dorzagliatin]       ng/mL             325

----------
assay: Phase I single oral dose pharmacokinetic study of dorzagliatin in subjects with mild or moderate hepatic impairment and healthy subjects (plasma, LC-MS/MS, non-compartmental); assay type: in vivo, human; conditions: both sexes, human, plasma, po, 25 mg, single oral dose 25 mg; mild hepatic impairment group; read-out: AUClast, geometric least squares mean
property measured: AUC(0-t) (ng·h/mL)

> print(dat)
                                   compound  unit.label  value.measured
1  CC(C)C[C@@H](C(=O)Nc1ccn(C[C@@H](O)CO)n1)N1CC(Oc2ccccc2Cl)=CC1=O [dorzagliatin]     ng·h/mL            2170

----------
assay: Phase I single oral dose pharmacokinetic study of dorzagliatin in subjects with mild or moderate hepatic impairment and healthy subjects (plasma, LC-MS/MS, non-compartmental); type: in vivo, human; details: both sexes, human, plasma, po, 25 mg, single oral dose 25 mg; mild hepatic impairment group; read-out: Cmax, geometric least squares mean
property measured: Cmax

> print(dat)
                                chem.smiles  value.measured
1  CC(C)C[C@@H](C(=O)Nc1ccn(C[C@@H](O)CO)n1)N1CC(Oc2ccccc2Cl)=CC1=O       370 ng/mL

----------
assay: Phase I single oral dose pharmacokinetic study of dorzagliatin in subjects with mild or moderate hepatic impairment and healthy subjects (plasma, LC-MS/MS, non-compartmental); format: in vivo, human; details: both sexes, human, plasma, po, 25 mg, free drug; single oral dose 25 mg; mild hepatic impairment group (N=7); arithmetic mean; read-out: AUCinf,u
property measured: AUC(0-inf) (ng·h/mL)

> print(dat)
                                   molecule  property.measured  value.measured
1  CC(C)C[C@@H](C(=O)Nc1ccn(C[C@@H](O)CO)n1)N1CC(Oc2ccccc2Cl)=CC1=O [dorzagliatin]         AUC(0-inf)             170

----------
assay: Phase I single oral dose pharmacokinetic study of dorzagliatin in subjects with mild or moderate hepatic impairment and healthy subjects (plasma, LC-MS/MS, non-compartmental); format: in vivo, human; conditions: both sexes, human, plasma, po, 25 mg, single oral dose 25 mg; mild hepatic impairment group; arithmetic mean; read-out: Vz/F
property measured: Vd/F (L)

> print(dat)
                                   compound  property.measured  unit.label  value.measured
1  CC(C)C[C@@H](C(=O)Nc1ccn(C[C@@H](O)CO)n1)N1CC(Oc2ccccc2Cl)=CC1=O [dorzagliatin]               Vd/F           L             106

----------
Test: Phase I single oral dose pharmacokinetic study of dorzagliatin in subjects with mild or moderate hepatic impairment and healthy subjects (plasma, LC-MS/MS, non-compartmental)
Type: in vivo, human
Details: both sexes, human, plasma, po, 25 mg, single oral dose 25 mg; moderate hepatic impairment group; mean; read-out: AUClast
Procedure: This phase I study is to access the pharmacokinetics and safety of a single dose of dorzagliatin in subjects with mild or moderate hepatic impairment, and heathy subjects. […] on Day −2 or −1, eligible subjects are admitted to a clinical research center (CRC). […] The samples are analyzed using LC-MS/MS. The plasma concentration-time data for dorzagliatin are analyzed using a non-compartmental model to obtain PK parameters, including Cmax, AUClast, and AUCinf. […]
property measured: AUC(0-t) (ng·h/mL)

> print(dat)
                                   compound  value.measured
1  CC(C)C[C@@H](C(=O)Nc1ccn(C[C@@H](O)CO)n1)N1CC(Oc2ccccc2Cl)=CC1=O [dorzagliatin]            3410

----------
Experiment: Phase I single oral dose pharmacokinetic study of dorzagliatin in subjects with mild or moderate hepatic impairment and healthy subjects (plasma, LC-MS/MS, non-compartmental)
Assay type: in vivo, human
Conditions: both sexes, human, plasma, po, 25 mg, single oral dose 25 mg; healthy group; arithmetic mean; read-out: AUCinf
Description: This phase I study is to access the pharmacokinetics and safety of a single dose of dorzagliatin in subjects with mild or moderate hepatic impairment, and heathy subjects. […] on Day −2 or −1, eligible subjects are admitted to a clinical research center (CRC). […] The samples are analyzed using LC-MS/MS. The plasma concentration-time data for dorzagliatin are analyzed using a non-compartmental model to obtain PK parameters, including Cmax, AUClast, and AUCinf. […]
property measured: AUC(0-inf)

> print(dat)
                                   molecule  value.measured
1  CC(C)C[C@@H](C(=O)Nc1ccn(C[C@@H](O)CO)n1)N1CC(Oc2ccccc2Cl)=CC1=O [dorzagliatin]    1910 ng·h/mL

----------
assay: Phase I single oral dose pharmacokinetic study of dorzagliatin in subjects with mild or moderate hepatic impairment and healthy subjects (plasma, LC-MS/MS, non-compartmental); assay type: in vivo, human; conditions: both sexes, human, plasma, po, 25 mg, single oral dose 25 mg; moderate hepatic impairment group; arithmetic mean; read-out: Vz/F
property measured: Vd/F (L)

> print(dat)
                                chem.smiles  unit.label  value.measured
1  CC(C)C[C@@H](C(=O)Nc1ccn(C[C@@H](O)CO)n1)N1CC(Oc2ccccc2Cl)=CC1=O           L            85.2

----------
experiment: Phase I single oral dose pharmacokinetic study of dorzagliatin in subjects with mild or moderate hepatic impairment and healthy subjects (plasma, LC-MS/MS, non-compartmental); type: in vivo, human; conditions: both sexes, human, plasma, po, 25 mg, single oral dose 25 mg; moderate hepatic impairment group; arithmetic mean; read-out: AUCinf
property measured: AUC(0-inf) (ng·h/mL)

> print(dat)
                                chem.smiles  value.measured
1  CC(C)C[C@@H](C(=O)Nc1ccn(C[C@@H](O)CO)n1)N1CC(Oc2ccccc2Cl)=CC1=O            3450

----------
assay: Plasma protein binding (PPB) analysis, free drug percentage (fu); type: in vitro ADME; conditions: human, oral, 25 mg, healthy group, read-out: free drug percentage (fu), geometric mean
property measured: fraction unbound

> print(dat)
                                chem.smiles  property.measured  value.measured
1  CC(C)C[C@@H](C(=O)Nc1ccn(C[C@@H](O)CO)n1)N1CC(Oc2ccccc2Cl)=CC1=O   fraction unbound          0.0639

----------
assay: Phase I single oral dose pharmacokinetic study of dorzagliatin in subjects with mild or moderate hepatic impairment and healthy subjects (plasma, LC-MS/MS, non-compartmental); assay type: in vivo, human; details: both sexes, human, plasma, po, 25 mg, single oral dose 25 mg; mild hepatic impairment group; median
property measured: Tmax (h)

> print(dat)
                                   compound  value.measured
1  CC(C)C[C@@H](C(=O)Nc1ccn(C[C@@H](O)CO)n1)N1CC(Oc2ccccc2Cl)=CC1=O [dorzagliatin]             1.5

----------
test: Plasma protein binding (PPB) analysis, free drug percentage (fu); format: in vitro ADME; conditions: human, oral, 25 mg, mild hepatic impairment group, read-out: free drug percentage (fu), geometric mean
property measured: fraction unbound

> print(dat)
                                chem.smiles  value.measured
1  CC(C)C[C@@H](C(=O)Nc1ccn(C[C@@H](O)CO)n1)N1CC(Oc2ccccc2Cl)=CC1=O          0.0712

----------
assay: Phase I single oral dose pharmacokinetic study of dorzagliatin in subjects with mild or moderate hepatic impairment and healthy subjects (plasma, LC-MS/MS, non-compartmental); type: in vivo, human; conditions: both sexes, human, plasma, po, 25 mg, single oral dose 25 mg; healthy group; arithmetic mean; read-out: AUClast
property measured: AUC(0-t)

> print(dat)
                                chem.smiles  value.measured
1  CC(C)C[C@@H](C(=O)Nc1ccn(C[C@@H](O)CO)n1)N1CC(Oc2ccccc2Cl)=CC1=O    1890 ng·h/mL

// provenance: patent US20230270723A1
